System: PI3Kα
Test: PI3Kα enzyme selectivity (PI3Kα IC50 over mTOR IC50)
Type: biochemical
Settings: ratio of PI3Kα enzyme IC50 over mTOR enzyme IC50; Table 2, unit not given
OBSERVATION TYPE: PI3Kα Sel
Please give the numeric answer without any surrounding text.

State the recorded PI3Kα Sel for this entry: C[C@@]12COCCN1c1nc(-c3cnc4[nH]ccc4c3)ncc1N(C1CCOC1)C2=O (stereo partly shown) [13a] 5

State the recorded PI3Kα Sel for this entry: C[C@@]12COCCN1c1nc(-c3cnc4[nH]ccc4c3)ncc1N(C1CCOCC1)C2=O 23

State the recorded PI3Kα Sel for this entry: C[C@@]12COCCN1c1nc(-c3cnc4[nH]ccc4c3)ncc1N(C1CCN(S(C)(=O)=O)CC1)C2=O [13e] 14

State the recorded PI3Kα Sel for this entry: C[C@@]12COCCN1c1nc(-c3cnc4[nH]ccc4c3)ncc1N(C1(CCO)CC1)C2=O [13d] 59

State the recorded PI3Kα Sel for this entry: C[C@@]12COCCN1c1nc(-c3cnc4[nH]ccc4c3)ncc1N(CCCO)C2=O [13c] 9

State the recorded PI3Kα Sel for this entry: C[C@@]12COCCN1c1nc(-c3cccc4[nH]ccc34)ncc1N([C@H]1CC[C@H](O)CC1)C2=O [14c] 240

State the recorded PI3Kα Sel for this entry: C[C@@]12COCCN1c1nc(-c3cccc4[nH]ccc34)ncc1N(C1CCOCC1)C2=O 110

State the recorded PI3Kα Sel for this entry: COCCCN1C(=O)[C@]2(C)COCCN2c2nc(-c3cnc4[nH]ccc4c3)ncc21 [13b] 9

State the recorded PI3Kα Sel for this entry: C[C@@]12COCCN1c1nc(-c3cccc4[nH]ccc34)ncc1N([C@H]1CC[C@@H](O)CC1)C2=O [14b] 110

State the recorded PI3Kα Sel for this entry: CC(=O)N1CCC(N2C(=O)[C@]3(C)COCCN3c3nc(-c4cccc5[nH]ccc45)ncc32)CC1 [14a] 120

###

Experiment: Human liver microsome intrinsic clearance
Type: in vitro ADME
Conditions: human, liver microsomes; Figure 1 profile; read-out: HLM Clint
OBSERVATION TYPE: CLint scaled (mL/min/kg)
Give just the numeric value; mL/min/kg need not be written.

State the recorded CLint scaled for this entry: CC(F)(F)CN1C(=O)[C@]2(C)COCCN2c2nc(-c3ccc(NC(=O)NC4CC4)cc3)ncc21 10

###

Target: human ether-a-go-go (hERG) (Homo sapiens, UniProt Q12809)
Sequence (Q12809 whole entry): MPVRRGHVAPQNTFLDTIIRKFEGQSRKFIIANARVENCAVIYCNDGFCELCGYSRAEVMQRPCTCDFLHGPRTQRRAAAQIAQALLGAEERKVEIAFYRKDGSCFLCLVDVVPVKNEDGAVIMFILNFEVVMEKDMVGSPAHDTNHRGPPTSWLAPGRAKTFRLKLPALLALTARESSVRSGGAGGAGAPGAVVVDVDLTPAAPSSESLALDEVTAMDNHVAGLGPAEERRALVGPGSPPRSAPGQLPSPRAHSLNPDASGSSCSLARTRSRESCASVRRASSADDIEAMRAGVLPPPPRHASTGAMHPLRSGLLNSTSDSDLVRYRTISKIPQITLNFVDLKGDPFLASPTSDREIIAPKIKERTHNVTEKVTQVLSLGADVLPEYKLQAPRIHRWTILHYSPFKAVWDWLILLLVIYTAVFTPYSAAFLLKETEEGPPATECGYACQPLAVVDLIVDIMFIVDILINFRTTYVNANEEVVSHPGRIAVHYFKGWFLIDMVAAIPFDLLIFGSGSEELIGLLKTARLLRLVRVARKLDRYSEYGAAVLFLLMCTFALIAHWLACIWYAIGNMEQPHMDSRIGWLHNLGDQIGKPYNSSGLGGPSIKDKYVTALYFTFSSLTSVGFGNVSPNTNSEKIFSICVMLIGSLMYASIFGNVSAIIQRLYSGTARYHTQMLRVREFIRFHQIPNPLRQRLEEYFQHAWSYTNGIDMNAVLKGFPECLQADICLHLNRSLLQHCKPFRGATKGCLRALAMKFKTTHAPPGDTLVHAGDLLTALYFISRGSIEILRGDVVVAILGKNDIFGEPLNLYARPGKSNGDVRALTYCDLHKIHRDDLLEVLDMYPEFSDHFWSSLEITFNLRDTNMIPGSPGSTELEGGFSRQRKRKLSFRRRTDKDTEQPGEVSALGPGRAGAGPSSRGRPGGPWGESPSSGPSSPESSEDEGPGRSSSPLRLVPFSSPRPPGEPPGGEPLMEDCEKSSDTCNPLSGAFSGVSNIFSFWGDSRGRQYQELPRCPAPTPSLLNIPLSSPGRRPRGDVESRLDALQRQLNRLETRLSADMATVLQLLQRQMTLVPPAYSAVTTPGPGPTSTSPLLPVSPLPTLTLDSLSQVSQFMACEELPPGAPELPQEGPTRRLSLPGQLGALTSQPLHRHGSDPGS
Test: hERG patch clamp
Assay type: cell-based
pIC50: −log10 of the molar value.
OBSERVATION TYPE: pIC50

State the recorded pIC50 for this entry: C[C@@]12COCCN1c1nc(-c3cccc4[nH]ccc34)ncc1N([C@H]1CC[C@H](O)CC1)C2=O [14c] < 4.40

###

System: pAKT-S473 in PC-3 cells (TORC2)
Test: Cellular p-AKT (ser473) AlphaScreen assay in PC-3 cells (TORC2 activity)
Type: cell-based, human
Settings: Homo sapiens, PC-3, PC-3 cell line; read-out: pAKT S473 Cell IC50
Kindly supply the reported pIC50 values for the records listed here.
In simple prose, pIC50 is minus the logarithm base ten of a concentration in moles per litre.

State the recorded pIC50 for this entry: COCCCN1C(=O)[C@]2(C)COCCN2c2nc(-c3cnc4[nH]ccc4c3)ncc21 [13b] 7.24

State the recorded pIC50 for this entry: C[C@@]12COCCN1c1nc(-c3cnc4[nH]ccc4c3)ncc1N(C1(CCO)CC1)C2=O [13d] 7.21

State the recorded pIC50 for this entry: Cc1cccc2c(-c3ncc4c(n3)N3CCOC[C@@]3(C)C(=O)N4C3CCOCC3)c[nH]c12 [4i] 8.05

State the recorded pIC50 for this entry: C[C@@]12COCCN1c1nc(-c3cccc4[nH]ccc34)ncc1N([C@H]1CC[C@H](O)CC1)C2=O [14c] 8.00
